- Study Conditions: Crystal; DTA
Listing: Normal melting temperature of selected molecules
Numbers only; they are read as °C.

Consider the following illustrative entries.
1. CCCCCCCCO
-14.4
2. CCCCCCCCCCO
7.2

# input GET /values?readout=Normal melting temperature&item= CCCCCCCCCC(=O)O
# output 32.2

# input Please look up its Normal melting temperature: CCCCCCCC(=O)O
# output 16.6

----------
Entries annotated with measured Molar enthalpy of transition or fusion
- Measurement Notes: Molar enthalpy of transition or fusion
- Study Conditions: Crystal; DSC
Dear colleague, please return just the value in kJ/mol, with no unit written.

1) CCCCCCCCCC(=O)O
28
2) CCCCCCCCO
23.7
3) CCCCCCCC(=O)O
21.4

In the following, a different compound is considered.
# input Endpoint output: Molar enthalpy of transition or fusion of CCCCCCCCCCO . Value?
# output 28.8
